test system: KRAS PDC multicell spheroid viability; assay: Anticancer human tumor 521955-158-R6-J3-PDC patient-derived pancreatic carcinoma cell line growth inhibition [KRAS2]; details: second compound 0.0316 µM; first compound 0.1 µM; stronger effect = lower value;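 also: drug exposure lasted seven days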
Lab note - cut at 90% for viability, T/C: rule met if strictly below, rule not met if not.

Problem: For this molecule, is viability, T/C lower than 90%? CC(=O)OC12COC1CC(O)C1(C)C(=O)C(O)C3=C(C)C(OC(=O)C(O)C(NC(=O)OC(C)(C)C)c4ccccc4)CC(O)(C(OC(=O)c4ccccc4)C21)C3(C)C (stereo not given) + C=CC(=O)N1CCN(c2nc(OCC3CCCN3C)nc3c2CCN(c2cccc4cccc(C)c24)C3)CC1CC#N
Solution: rule met

Problem: For this molecule, is viability, T/C lower than 90%? CCNC(=O)CC1N=C(c2ccc(Cl)cc2)c2cc(OC)ccc2-n2c(C)nnc21 (stereo not given) + C=CC(=O)N1CCN(c2nc(OCC3CCCN3C)nc3c2CCN(c2cccc4cccc(C)c24)C3)CC1CC#N
Solution: rule met

Problem: For this molecule, is viability, T/C lower than 90%? O=C(c1cc(Cc2n[nH]c(=O)c3ccccc23)ccc1F)N1CCN(C(=O)C2CC2)CC1 + C=CC(=O)N1CCN(c2nc(OCC3CCCN3C)nc3c2CCN(c2cccc4cccc(C)c24)C3)CC1CC#N
Solution: rule not met

Problem: For this molecule, is viability, T/C lower than 90%? CN(C)C/C=C/C(=O)Nc1cc2c(Nc3ccc(F)c(Cl)c3)ncnc2cc1O[C@H]1CCOC1 + C=CC(=O)N1CCN(c2nc(OCC3CCCN3C)nc3c2CCN(c2cccc4cccc(C)c24)C3)CC1CC#N
Solution: rule met
